Test system: CCRF-CEM
Test: NCI tumour cell line growth inhibition, 48 h
Activity calls are given as the source filed them. Rule as the data show it: active = GI50 up to about 1.1 µM and inactive = higher.
I would appreciate it if you answered using one of these outcomes: T for active, F for inactive

How did this test come out for [O-][N+]1=C(c2ccccc2)/C(=C2/C(c3ccccc3)=[N+]([O-])c3ccccc32)Cc2ccccc21 ?
F

Let us now turn to NC(=O)CCC(NC(=O)Cc1ccccc1)C(=O)O.NC(CCC(=O)NC(=O)Cc1ccccc1)C(=O)O (stereo not drawn)
F

Let us now turn to N#Cc1c(-c2ccccc2)c(/C=N/c2cccc(C(F)(F)F)c2)c(=O)n2c1[nH]c1ccccc12
F

Let us now turn to Cc1ccc(C2SC(=N)Nc3c2c(C)nn3C(=O)c2ccc(Cl)cc2)cc1 (stereo not drawn)
F

Let us now turn to CCOc1cc(C(c2c(O)c3ccccc3oc2=O)c2c(O)c3ccccc3oc2=O)ccc1OC
F

Let us now turn to CC(C)C(/N=C/c1ccccc1O)C(=O)O (stereo not drawn)
F

Let us now turn to Cc1ccc(C2=Nn3c(nc4sc5c(c4c3=O)CCCC5)SC2)cc1
F

Let us now turn to CCOC(=O)C1=C(C)N(Cc2ccccc2)C2(O)C=CC(=O)C3C(=O)N(c4ccccc4)C(=O)C132 (stereo not drawn)
T

Let us now turn to N=C(N)N/N=C/c1oc(-c2ccc(S(=O)(=O)O)o2)c(-c2ccc(S(=O)(=O)O)o2)c1[N+](=O)[O-]
F

Let us now turn to COC(=O)[C@H]1NC(=O)CCSSC1(C)C
F

Let us now turn to O=C(CCCCCCCCC(=O)N1C(=O)CC(=O)N(c2cccc(Cl)c2)C1=S)N1C(=O)CC(=O)N(c2cccc(Cl)c2)C1=S
F

Let us now turn to COc1cc(S(=O)(=O)Nc2ccc(-c3csc(/N=C\c4cccs4)n3)cc2)ccc1Cl
F

Let us now turn to CN(Cc1cc(Cl)cc(Cl)c1)CC(C(=O)c1ccccc1)c1ccccc1 (stereo not drawn)
T

----------
Test system: OVCAR-5
Experiment: NCI tumour cell line growth inhibition, 48 h
Active and inactive are the calls of the source. Cut-off read from the data, not from the text of the source: active = GI50 up to about 1.1 µM and inactive = higher.
I would appreciate it if you answered using one of these outcomes: active, inactive

How did this test come out for COC1/C=C\C=C(/C)C(=O)NC2=CC(=O)C(N)=C(CC(C)CC(OC)C(O)C(C)C=C(C)C1OC(N)=O)C2=O (stereo not drawn) ?
active

Let us now turn to Cn1c2ccccc2n2c3nc4ccccc4nc3c(C#N)c12
inactive

Let us now turn to CN(C(=O)Cc1ccc(Cl)c(Cl)c1)[C@H]1CCCC[C@@H]1[N+]1(C)CCCC1
inactive

----------
Test system: HL-60
Experiment: NCI tumour cell line growth inhibition, 48 h
Calls of active or inactive are those of the source. Cut-off read from the data, not from the text of the source: active = GI50 up to about 1.1 µM and inactive = higher.
I would appreciate it if you answered using one of these outcomes: yes (active), no (inactive)

How did this test come out for O=C(/C=C/c1c(O)ccc2ccccc12)c1ccc([N+](=O)[O-])cc1 ?
no

Let us now turn to C=C1C(=O)OC2CC3(C)OC3CC/C(C)=C/C(OC(C)=O)C12 (configuration not stated)
no

Let us now turn to C=CCNC(=O)CN(CC(=O)OC)C1CCCCC1N(CC(=O)OC)CC(=O)OC (configuration not stated)
no

Let us now turn to O=C(O)c1ccc(Nc2nc3ccc(C(F)(F)F)cc3nc2C(=O)O)cc1
no

Let us now turn to Cc1cccc(CNNC(=O)c2cc[n+]([BH2-]C#N)cc2)c1
no

Let us now turn to FC1(F)SC2CCCCCCCCCCC2C1(F)F (configuration not stated)
no

Let us now turn to CC12Cc3cc4c(cc3C1(c1ccc([N+](=O)[O-])cc1)OCCO2)OCO4 (configuration not stated)
no

Let us now turn to O=C1c2ccccc2C(C2c3ccccc3C(=O)c3cc(Br)ccc32)c2ccc(Br)cc21 (configuration not stated)
yes

Let us now turn to CCOP1(=O)OCC2OC(n3cnc4c(N)ncnc43)C(O)C2O1.c1ccccc1 (configuration not stated)
no

Let us now turn to Cc1cc(NC(=O)NC(=O)c2ccccc2N)ccc1Oc1ncc(Br)cn1
yes

Let us now turn to COC(=O)/C=C(/C(=O)OC)C1(C)c2cc(C(=O)OC)c(C(=O)OC)c(N)c2C(=N)N1c1ccccc1 (configuration not stated)
no

Let us now turn to CC(=O)Oc1c(-c2ccccc2)[nH]c2cc([N+](=O)[O-])c(/C(Cl)=C/c3ccccc3)cc12
no

----------
Tested on: HOP-92
Test: NCI tumour cell line growth inhibition, 48 h
The source made the active and inactive calls. Cut-off read from the data, not from the text of the source: active = GI50 up to about 1.1 µM and inactive = higher.
I would appreciate it if you answered using one of these outcomes: active, inactive

How did this test come out for CC1CC2CC(=O)CC3(C1)C2CCCN3CCCO (configuration not stated) ?
inactive

Let us now turn to CCOC(=O)C1=C(C)N(Cc2ccccc2)C2(O)C=CC(=O)C3C(=O)N(c4ccccc4)C(=O)C132 (configuration not stated)
inactive

Let us now turn to CCOC(=O)c1ccc(N[C@@H]2c3cc4c(cc3C(C3=CC(=O)C(=O)C(OC)=C3)[C@H]3C(=O)OCC32)OCO4)cc1 (some centres not stated)
inactive

Let us now turn to Cc1nnc2n(c1=O)CCN2C
inactive

Let us now turn to CC(=O)n1c(COS(C)(=O)=O)nc2ccccc21
inactive

Let us now turn to CC(C)CCCCCCCCCCCCC(=O)NCC(=O)NC1C(O)C(O)C(Nc2[nH]cnc3ncnc2-3)OC1C(O)CO (configuration not stated)
active

Let us now turn to S=C(N/N=C\C=N/NC(=S)N1CCCCCC1)N1CCCCCC1
inactive

Let us now turn to CCCCCc1c(Cl)nc(Cl)nc1Cl
inactive

Let us now turn to COc1cc(C(=O)C/C(CCC(=O)Nc2ccc(Cl)cc2C)=N/NC(=O)C(N)=O)ccc1O
inactive

Let us now turn to O=C(O)CCN(CCCCN(CCC(=O)O)CCC(=O)O)CCC(=O)O
inactive

Let us now turn to CC1OC(CO)(n2cnc3c(N)ncnc32)C(O)C1O (configuration not stated)
inactive

Let us now turn to CCC(C)[C@@H](NCc1ccccc1)[C@H](OCc1ccccc1)[C@@H]1COC(C)(C)O1 (some centres not stated)
inactive

----------
Test system: Malme-3M
Assay: NCI tumour cell line growth inhibition, 48 h
Active and inactive are the calls of the source. Cut-off read from the data, not from the text of the source: active = GI50 up to about 1.1 µM and inactive = higher.
I would appreciate it if you answered using one of these outcomes: Yes (active), No (inactive)

How did this test come out for Cc1cccc(NC2=NC(=O)C(CC(=O)Nc3cccc(C)c3C)S2)c1 (configuration not stated) ?
No

Let us now turn to Cc1cc(N(CCC#N)CCC#N)ccc1/C=C(\N=[N+]=[N-])C(=O)NC(=O)COc1ccccc1
No

Let us now turn to CCC(C)[C@@H](NCc1ccccc1)[C@H](OCc1ccccc1)[C@@H]1COC(C)(C)O1 (some centres not stated)
No

Let us now turn to NC1=C(Br)C(=O)c2ncccc2C1=O
Yes

Let us now turn to CC(C)c1c(O[Si](C(C)C)(C(C)C)C(C)C)cc2c(c1O)CC[C@H]1C(C)(C)CCC[C@]21C
No

Let us now turn to CC/C=C1\N=C(c2ccc(Cl)cc2)OC1=O
No

Let us now turn to Cn1c(C2CC(C)(C)c3c2c2ccccc2n3C)cc2ccccc21 (configuration not stated)
No

Let us now turn to CC(=O)O[C@H]1CC2C(C3CCC(C(C)CCC(=O)O)[C@]31C)[C@H](OC(C)=O)C[C@@H]1CC3(CC[C@]21C)OOC1(CC[C@]2(C)C4C[C@H](OC(C)=O)[C@]5(C)C(C(C)CCC(=O)O)CCC5C4[C@H](OC(C)=O)C[C@@H]2C1)OO3 (some centres not stated)
No

Let us now turn to Cc1ccc(S(=O)(=O)N2CCC2c2ccccc2)cc1 (configuration not stated)
No

Let us now turn to O=c1c2cccnc2oc2c(Cl)cc(-c3nnn[nH]3)cc12
No

Let us now turn to O=C1C(Cl)N(c2ccccc2Cl)C1c1c[nH]c2ccccc12 (configuration not stated)
No

Let us now turn to C[N+](C)(C)CC(=O)N/N=c1\cc(C(=O)Nc2ccc(N=O)cc2C#N)oc2cc(O)ccc12
No

Let us now turn to O=C(C(=O)c1cc(-c2ccccc2)nc2ccc3ccccc3c12)c1ccccc1
No

Let us now turn to CC[P+](C)(Cc1ccccc1)c1ccccc1.O=C(OC(C(=O)[O-])C(OC(=O)c1ccccc1)C(=O)O)c1ccccc1 (configuration not stated)
No

Let us now turn to CC(C)(C)c1cc(C#N)c2c(c1)C(=O)OC2(c1ccccc1)c1ccccc1C#N (configuration not stated)
No

Let us now turn to O=C(N/N=C1\CCc2ccccc21)N/N=C1\CCc2ccccc21
No

Let us now turn to O=C1Oc2ccccc2C(=O)/C1=C/N1C(=O)N/C(=C\c2ccccc2O)C1=O
No

Let us now turn to Cc1ccc(NC(=O)C(=O)C(C(=O)c2ccc3ccccc3c2)C2OC(=O)c3ccccc32)c(C)c1 (configuration not stated)
No

Let us now turn to COC(=O)[C@H]1NC(=O)CCSSC1(C)C
No

Let us now turn to COc1ccc(/C(Cl)=C(\C=N/O)c2ccc(OC)c(OC)c2)cc1OC
No

Let us now turn to Cn1c2ccccc2n2c3nc4ccccc4nc3c(C#N)c12
No

Let us now turn to Cc1cc(=O)oc2cc(SC(=O)N(C)C)ccc12
No

From: ChEMBL document CHEMBL1201862
